Where do the numbers come from? From patent US8258186B2.

- assay-protocol: Multi-dose rat pharmacokinetic and tolerability study
- Type: in vivo, Sprague Dawley rats
- cond: male, Sprague Dawley, in vivo, po, 60 mg/kg/day
observation-type: AUC (ng·h/mL)

* CC(/C=N/NC(=N)N)=N\NC(=N)N | 17100

###

- assay-protocol: Multi-dose rat pharmacokinetic and tolerability study
- Assay type: in vivo, Sprague Dawley rats
- cond: in vivo, male Sprague Dawley rats, PO gavage twice daily, seven consecutive days, read-out: no observable adverse effect level (NOAEL)
- Description: The purpose of this study was to determine the pharmacokinetic (PK) properties and tolerability of MGBG in rats. Additionally, recovery from any toxic effects was assessed after a seven day non-dosing period. Three per group of male Sprague Dawley (CD® MS, Charles River) aged 7-9 weeks and weighing 222.7-252.0 g were administered by oral (PO) gavage, twice daily, at 10, 20, or 30 mg/kg/dose (20, 40, or 60 mg/kg/day) for seven consecutive days. A washout period of seven days followed. […]
observation-type: NOAEL at 7 days (mg/kg/day)

- CC(/C=N/NC(=N)N)=N\NC(=N)N: 60
